# ASSAYED_SYSTEM: SMARCA2 (Homo sapiens)
# TEST_METHOD_NOTES: HiBiT assay for protein degradation, Hela SMARCA2-HiBiT cells (A series)
# Assay type: cell-based
# Set-up: Hela cells were genetically modified via CRISPR/Cas9 to fuse HiBiT to the carboxy terminus of SMARCA2; host or cells: HeLa (CRISPR/Cas9 HiBiT knock-in)
# PROTOCOL_CONDITIONS: Hela SMARCA2-HiBiT cells, 24 hours treatment; read-out: SMARC A2 Hela HiBit Dmax (%)
# Protocol: Hela cells were genetically modified via CRISPR/Cas9 to fuse HiBiT to the carboxy terminus of SMARCA2 (Promega CS302365) or SMARCA4 (Promega CS3023225). Cells were cultured in DMEM containing 10% FBS and 1% (Vol:Vol) penicillin-streptomycin. […] At the end of experiment, levels of SMARCA2 or SMARCA4 expression were assessed with Nano-Glo® HiBiT Lytic Detection Assay (Promega N3050). IC50 was obtained using the GraphPad Prism data analysis software.

COMPOUND	Dmax
Cc1ncsc1-c1ccc([C@H](C)NC(=O)[C@@H]2C[C@@H](O)CN2C(=O)[C@H](C2CCOCC2)n2cc([C@H]3CC[C@H](CN4CCC(c5ccc6c(c5)-n5c(nc(=O)c7c(Cl)cccc75)C65CCCCC5)CC4)CC3)nn2)cc1 [Compound A120]	> 90%
Cc1ncsc1-c1ccc([C@H](CNC(=O)[C@H]2CC[C@H](CN3CCC(c4ccc5c(c4)C4(CCCCC4)c4nc(=O)c6c(Br)cccc6n4-5)CC3)CC2)NC(=O)[C@@H]2C[C@@H](O)CN2C(=O)[C@@H](n2cc(C3CC3)nn2)C(C)(C)C)cc1 [Compound A117]	< 50%

====

# ASSAYED_SYSTEM: SMARCA2 (Homo sapiens)
# TEST_METHOD_NOTES: HiBiT assay for protein degradation, Hela SMARCA2-HiBiT cells (A series)
# Type: cell-based
# Design: Hela cells were genetically modified via CRISPR/Cas9 to fuse HiBiT to the carboxy terminus of SMARCA2; host or cells: HeLa (CRISPR/Cas9 HiBiT knock-in)
# PROTOCOL_CONDITIONS: Hela SMARCA2-HiBiT cells, 24 hours treatment; read-out: SMARC A2 Hela HiBit DC50
# Protocol: Hela cells were genetically modified via CRISPR/Cas9 to fuse HiBiT to the carboxy terminus of SMARCA2 (Promega CS302365) or SMARCA4 (Promega CS3023225). Cells were cultured in DMEM containing 10% FBS and 1% (Vol:Vol) penicillin-streptomycin. […] At the end of experiment, levels of SMARCA2 or SMARCA4 expression were assessed with Nano-Glo® HiBiT Lytic Detection Assay (Promega N3050). IC50 was obtained using the GraphPad Prism data analysis software.
# key: entry, value: DC50

COMPOUND	DC50
Cc1ncsc1-c1ccc([C@H](CN2CC3(COC3)C2)NC(=O)[C@@H]2C[C@@H](O)CN2C(=O)[C@@H](n2cc([C@H]3CC[C@H](CN4CCC(c5ccc6c(c5)-n5c(nc(=O)c7c(Cl)cccc75)C65CCCCC5)CC4)CC3)nn2)C(C)(C)C)cc1 [Compound A96]	< 10 nM
Cc1ncsc1-c1ccc([C@H](C)NC(=O)[C@@H]2C[C@@H](O)CN2C(=O)[C@@H](n2cc([C@H]3CC[C@H](CN4CCC(c5ncc6c(n5)-n5c(nc(=O)c7c(Br)cccc75)C65CCCCC5)CC4)CC3)nn2)C(C)(C)C)cc1 [Compound A31]	> 1000 nM
C[C@H](NC(=O)[C@@H]1C[C@@H](O)CN1C(=O)[C@@H](n1cc([C@H]2CC[C@H](CN3CCC(c4ccc5c(c4)-n4c(nc(=O)c6c(Br)cccc64)C54CCCCC4)CC3)CC2)nn1)C(C)(C)C)c1ccc(Cl)cc1 [Compound A68]	< 100 nM
Cc1ncsc1-c1ccc([C@H](CN2CC(C)(F)C2)NC(=O)[C@@H]2C[C@@H](O)CN2C(=O)[C@@H](n2cc([C@H]3CC[C@H](CN4CCC(c5ccc6c(c5)-n5c(nc(=O)c7c(Cl)cccc75)C65CCCCC5)CC4)CC3)nn2)C(C)(C)C)cc1 [Compound A74]	< 100 nM
Cc1ncsc1-c1ccc([C@H](CCCCCN2CCC(c3ccc4c(c3)C3(CCCCC3)c3nc(=O)c5c(Br)cccc5n3-4)CC2)NC(=O)[C@@H]2C[C@@H](O)CN2C(=O)[C@@H](NC(=O)C2(F)CC2)C(C)(C)C)cc1 [Compound A4]	< 100 nM
Cc1ncsc1-c1ccc([C@H](C)NC(=O)[C@@H]2C[C@@H](O)CN2C(=O)[C@@H](n2cc([C@H]3CC[C@H](CN4CCC(c5cnc6c(c5)-n5c(nc(=O)c7c(Br)cccc75)C65CCCCC5)CC4)CC3)nn2)C(C)(C)C)cc1 [Compound A76]	< 10 nM
Cc1ncsc1-c1ccc([C@H](CN2CCOCC2)NC(=O)[C@@H]2C[C@@H](O)CN2C(=O)[C@H](C2CCOCC2)n2cc([C@H]3CC[C@H](CN4CCC(c5ccc6c(c5)-n5c(nc(=O)c7c(Cl)cccc75)C6(C)C)CC4)CC3)nn2)cc1 [Compound A102]	< 10 nM
Cc1ncsc1-c1ccc([C@H](CN2CC(C(=O)O)C2)NC(=O)[C@@H]2C[C@@H](O)CN2C(=O)[C@@H](n2cc([C@H]3CC[C@H](CN4CCC(c5ccc6c(c5)-n5c(nc(=O)c7c(Cl)cccc75)C65CCCCC5)CC4)CC3)nn2)C(C)(C)C)cc1 [Compound A157]	100 to 1000 nM

====

# ASSAYED_SYSTEM: SMARCA2 (Homo sapiens, UniProt P51531)
# Sequence (P51531 whole entry): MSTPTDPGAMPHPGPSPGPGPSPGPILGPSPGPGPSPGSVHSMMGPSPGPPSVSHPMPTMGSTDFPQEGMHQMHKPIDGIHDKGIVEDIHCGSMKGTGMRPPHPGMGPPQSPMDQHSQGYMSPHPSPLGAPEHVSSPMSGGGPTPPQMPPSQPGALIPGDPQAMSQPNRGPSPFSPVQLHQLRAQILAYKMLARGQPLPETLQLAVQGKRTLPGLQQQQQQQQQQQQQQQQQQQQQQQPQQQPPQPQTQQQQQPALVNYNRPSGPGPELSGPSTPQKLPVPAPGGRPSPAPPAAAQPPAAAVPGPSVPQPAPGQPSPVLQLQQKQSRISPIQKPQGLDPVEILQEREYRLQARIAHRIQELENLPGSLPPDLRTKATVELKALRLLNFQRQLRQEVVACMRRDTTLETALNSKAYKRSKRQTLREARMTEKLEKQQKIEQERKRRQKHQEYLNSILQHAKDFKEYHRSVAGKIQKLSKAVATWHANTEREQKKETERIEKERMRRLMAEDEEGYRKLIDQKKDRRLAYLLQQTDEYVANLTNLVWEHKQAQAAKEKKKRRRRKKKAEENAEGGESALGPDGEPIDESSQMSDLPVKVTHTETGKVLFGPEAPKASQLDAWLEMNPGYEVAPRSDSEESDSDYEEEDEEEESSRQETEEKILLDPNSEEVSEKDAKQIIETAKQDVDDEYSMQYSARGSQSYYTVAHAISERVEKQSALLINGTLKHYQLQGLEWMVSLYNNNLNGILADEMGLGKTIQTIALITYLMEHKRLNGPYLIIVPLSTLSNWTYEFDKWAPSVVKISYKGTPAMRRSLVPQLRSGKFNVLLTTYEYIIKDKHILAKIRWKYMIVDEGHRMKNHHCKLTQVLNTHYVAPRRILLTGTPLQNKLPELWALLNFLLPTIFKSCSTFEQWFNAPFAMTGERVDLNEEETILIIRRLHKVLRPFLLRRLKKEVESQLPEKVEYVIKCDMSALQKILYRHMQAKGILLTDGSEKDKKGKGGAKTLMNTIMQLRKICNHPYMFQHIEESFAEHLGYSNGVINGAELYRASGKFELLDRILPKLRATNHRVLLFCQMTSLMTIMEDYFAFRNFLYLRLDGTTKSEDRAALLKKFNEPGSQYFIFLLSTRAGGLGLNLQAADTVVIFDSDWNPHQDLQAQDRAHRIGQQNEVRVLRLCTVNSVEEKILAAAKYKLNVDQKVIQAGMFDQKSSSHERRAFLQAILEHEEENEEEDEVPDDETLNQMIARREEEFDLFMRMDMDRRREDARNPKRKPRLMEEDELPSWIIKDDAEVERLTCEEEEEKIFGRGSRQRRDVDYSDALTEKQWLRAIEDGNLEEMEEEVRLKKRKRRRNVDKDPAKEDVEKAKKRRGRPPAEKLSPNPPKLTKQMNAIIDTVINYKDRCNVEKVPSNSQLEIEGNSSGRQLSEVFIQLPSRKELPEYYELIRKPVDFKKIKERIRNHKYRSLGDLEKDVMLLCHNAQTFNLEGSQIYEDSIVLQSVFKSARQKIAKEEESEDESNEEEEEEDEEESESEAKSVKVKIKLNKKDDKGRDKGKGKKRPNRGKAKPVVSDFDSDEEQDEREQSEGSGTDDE
# TEST_METHOD_NOTES: HiBiT assay for protein degradation, Hela SMARCA2-HiBiT cells (A series)
# Type: cell-based
# Parameters: Hela cells were genetically modified via CRISPR/Cas9 to fuse HiBiT to the carboxy terminus of SMARCA2; host or cells: HeLa (CRISPR/Cas9 HiBiT knock-in)
# PROTOCOL_CONDITIONS: read-out: SMARC A2 Hela HiBit DC50
ENDPOINT_NAME: DC50

COMPOUND	VALUE_OBSERVED
Cc1ncsc1-c1ccc([C@H](C)NC(=O)[C@@H]2C[C@@H](O)CN2C(=O)[C@@H](n2cc([C@H]3C[C@H](CN4CCC(c5ccc6c(c5)-n5c(nc(=O)c7c(Br)cccc75)C65CCCCC5)CC4)C3)nn2)C(C)(C)C)cc1	< 100 nM
Cc1ncsc1-c1ccc([C@H](CN2CCOCC2)NC(=O)[C@@H]2C[C@@H](O)CN2C(=O)[C@@H](NC(=O)C23CCC(CN4CCC(c5ccc6c(c5)C5(CCCCC5)c5nc(=O)c7c(Br)cccc7n5-6)CC4)(CC2)CC3)C(C)(C)C)cc1	< 100 nM
Cc1ncsc1-c1ccc([C@H](C)NC(=O)[C@@H]2C[C@@H](O)CN2C(=O)[C@@H](n2cc(-c3ccc(CN4CCC(c5ccc6c(c5)-n5c(nc(=O)c7c(Br)cccc75)C65CCCCC5)CC4)nc3)nn2)C(C)(C)C)cc1	> 1000 nM
Cc1ncsc1-c1ccc([C@H](C)NC(=O)[C@@H]2C[C@@H](O)CN2C(=O)[C@@H](NC(=O)C2CC(CN3CCC(c4ccc5c(c4)C4(CCCCC4)c4nc(=O)c6c(Br)cccc6n4-5)CC3)C2)C(C)(C)C)cc1 (stereo partly shown)	< 100 nM

====

# ASSAYED_SYSTEM: SMARCA4 (Homo sapiens)
# Sequence (P51532 whole entry): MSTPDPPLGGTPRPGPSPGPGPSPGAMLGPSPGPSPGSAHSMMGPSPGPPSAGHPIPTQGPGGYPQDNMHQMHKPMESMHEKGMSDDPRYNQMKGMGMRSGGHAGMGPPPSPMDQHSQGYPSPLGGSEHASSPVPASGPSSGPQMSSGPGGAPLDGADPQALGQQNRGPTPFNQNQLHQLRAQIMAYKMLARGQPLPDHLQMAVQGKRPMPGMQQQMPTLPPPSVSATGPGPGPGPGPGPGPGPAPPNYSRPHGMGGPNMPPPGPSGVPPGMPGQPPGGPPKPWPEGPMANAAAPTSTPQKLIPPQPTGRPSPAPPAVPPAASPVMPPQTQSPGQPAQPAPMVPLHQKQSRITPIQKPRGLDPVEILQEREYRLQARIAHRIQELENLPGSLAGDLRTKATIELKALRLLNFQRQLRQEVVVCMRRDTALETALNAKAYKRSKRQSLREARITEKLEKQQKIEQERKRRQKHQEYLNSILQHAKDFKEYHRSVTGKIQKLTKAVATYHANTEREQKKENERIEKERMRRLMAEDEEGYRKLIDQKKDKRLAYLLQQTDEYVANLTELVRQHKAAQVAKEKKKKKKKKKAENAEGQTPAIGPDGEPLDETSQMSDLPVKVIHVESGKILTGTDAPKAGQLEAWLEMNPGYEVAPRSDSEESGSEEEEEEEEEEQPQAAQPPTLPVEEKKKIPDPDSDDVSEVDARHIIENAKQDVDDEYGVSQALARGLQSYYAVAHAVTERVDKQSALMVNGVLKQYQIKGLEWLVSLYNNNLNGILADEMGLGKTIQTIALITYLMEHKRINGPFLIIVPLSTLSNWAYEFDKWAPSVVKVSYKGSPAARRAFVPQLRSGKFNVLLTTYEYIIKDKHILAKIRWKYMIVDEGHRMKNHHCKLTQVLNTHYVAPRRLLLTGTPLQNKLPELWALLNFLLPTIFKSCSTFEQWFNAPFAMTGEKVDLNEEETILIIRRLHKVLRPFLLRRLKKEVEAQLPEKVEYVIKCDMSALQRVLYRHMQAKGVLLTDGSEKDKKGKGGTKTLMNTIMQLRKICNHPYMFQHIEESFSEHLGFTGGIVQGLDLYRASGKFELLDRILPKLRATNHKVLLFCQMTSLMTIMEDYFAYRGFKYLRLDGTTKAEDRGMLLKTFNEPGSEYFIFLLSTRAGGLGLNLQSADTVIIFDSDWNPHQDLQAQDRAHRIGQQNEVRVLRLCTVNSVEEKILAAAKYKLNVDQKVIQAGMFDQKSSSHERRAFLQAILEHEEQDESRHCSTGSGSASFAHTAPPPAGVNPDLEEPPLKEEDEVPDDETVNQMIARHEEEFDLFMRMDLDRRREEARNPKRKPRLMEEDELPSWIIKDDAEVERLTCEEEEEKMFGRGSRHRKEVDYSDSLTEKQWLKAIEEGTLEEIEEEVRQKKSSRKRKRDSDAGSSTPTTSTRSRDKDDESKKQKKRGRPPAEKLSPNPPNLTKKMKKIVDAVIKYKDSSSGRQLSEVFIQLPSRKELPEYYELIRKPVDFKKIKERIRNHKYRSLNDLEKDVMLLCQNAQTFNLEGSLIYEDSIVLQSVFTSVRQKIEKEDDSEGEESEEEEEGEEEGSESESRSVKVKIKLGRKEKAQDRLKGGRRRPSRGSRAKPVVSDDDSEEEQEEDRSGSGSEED
# TEST_METHOD_NOTES: HiBiT assay for protein degradation, Hela SMARCA4-HiBiT cells (A series)
# Type: cell-based
# Set-up: fuse HiBiT to the carboxy terminus of SMARCA2 (Promega CS302365) or SMARCA4 (Promega CS3023225); host or cells: HeLa (CRISPR/Cas9 HiBiT knock-in)
# PROTOCOL_CONDITIONS: Hela SMARCA4-HiBiT cells, 24 hours treatment; read-out: SMARC A4 Hela HiBit Dmax

STRUCTURE_NOTATION	Dmax
Cc1ncsc1-c1ccc([C@H](CN2CCC(C(F)F)CC2)NC(=O)[C@@H]2C[C@@H](O)CN2C(=O)[C@@H](n2cc([C@H]3CC[C@H](CN4CCC(c5ccc6c(c5)-n5c(nc(=O)c7c(Cl)cccc75)C65CCCCC5)CC4)CC3)nn2)C(C)(C)C)cc1	< 50%
Cc1ncsc1-c1ccc([C@H](C)NC(=O)[C@@H]2C[C@@H](O)CN2C(=O)[C@H](C2CCOCC2)n2cc([C@H]3CC[C@H](CN4CCC(c5ccc6c(c5)-n5c(nc(=O)c7c(Cl)cccc75)C65CCCCC5)CC4)CC3)nn2)cc1	50 to 69%
COC(=O)C1CCN(C[C@H](NC(=O)[C@@H]2C[C@@H](O)CN2C(=O)[C@@H](n2cc([C@H]3CC[C@H](CN4CCC(c5ccc6c(c5)-n5c(nc(=O)c7c(Cl)cccc75)C65CCCCC5)CC4)CC3)nn2)C(C)(C)C)c2ccc(-c3scnc3C)cc2)CC1	50 to 69%
Cc1ncsc1-c1ccc([C@H](CN2CCN(C)CC2)NC(=O)[C@@H]2C[C@@H](O)CN2C(=O)[C@@H](n2cc([C@H]3CC[C@H](CN4CCC(c5ccc6c(c5)-n5c(nc(=O)c7c(Cl)cccc75)C65CCCCC5)CC4)CC3)nn2)C(C)(C)C)cc1	50 to 69%
